B1: LINE1-mini (parent)
chain: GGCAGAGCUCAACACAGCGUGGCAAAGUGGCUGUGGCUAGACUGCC

Variants of: B1
Assay: self-cleavage, relative activity (ratio to wild type); higher = more cleavage; in vitro, sequencing; the parent is a self-cleaving ribozyme
Recorded self-cleavage, one value per entry.
PROPERTY: self-cleavage

{"MUTANT": "G2C A14G", "ASSAY_RESULT": 0.03}
{"MUTANT": "A6C G44A", "ASSAY_RESULT": 0.22}
{"MUTANT": "A24U C42A", "ASSAY_RESULT": 0.18}
{"MUTANT": "G19C", "ASSAY_RESULT": 0.5}
{"MUTANT": "U28A G30C", "ASSAY_RESULT": 0.62}
{"MUTANT": "A11G G40A", "ASSAY_RESULT": 0.03}
{"MUTANT": "G7U G21C", "ASSAY_RESULT": 0.08}
{"MUTANT": "G2U C37U", "ASSAY_RESULT": 0.05}
{"MUTANT": "C8A C37A", "ASSAY_RESULT": 0.12}
{"MUTANT": "C23U G27U", "ASSAY_RESULT": 0.87}
{"MUTANT": "G17C U38G", "ASSAY_RESULT": 0.03}
{"MUTANT": "C18G C37A", "ASSAY_RESULT": 0.07}
{"MUTANT": "G19C U38G", "ASSAY_RESULT": 0.01}
{"MUTANT": "A4G G29A", "ASSAY_RESULT": 0.36}
{"MUTANT": "G21A G27A", "ASSAY_RESULT": 1.01}
{"MUTANT": "C3G U28A", "ASSAY_RESULT": 0.22}
{"MUTANT": "C18U G35U", "ASSAY_RESULT": 0.08}
{"MUTANT": "C18A C37U", "ASSAY_RESULT": 0.07}
{"MUTANT": "G17U A26G", "ASSAY_RESULT": 0.1}
{"MUTANT": "G29A G40C", "ASSAY_RESULT": 0.08}
{"MUTANT": "A16G G40A", "ASSAY_RESULT": 0.05}
{"MUTANT": "A4G A41U", "ASSAY_RESULT": 0.3}
{"MUTANT": "G5U C13G", "ASSAY_RESULT": 0.23}
{"MUTANT": "C31G A41C", "ASSAY_RESULT": 0.05}
{"MUTANT": "G22U G27U", "ASSAY_RESULT": 1.46}
{"MUTANT": "U20G A24U", "ASSAY_RESULT": 0.54}
{"MUTANT": "A14C G30U", "ASSAY_RESULT": 0.07}
{"MUTANT": "A11G C42G", "ASSAY_RESULT": 0.01}
{"MUTANT": "G21C G33U", "ASSAY_RESULT": 0.11}
{"MUTANT": "A26G G40A", "ASSAY_RESULT": 0.14}
{"MUTANT": "A16C U20G", "ASSAY_RESULT": 0.08}
{"MUTANT": "G30U U34C", "ASSAY_RESULT": 0.05}
{"MUTANT": "G19A G40C", "ASSAY_RESULT": 0.07}
{"MUTANT": "U20C C31A", "ASSAY_RESULT": 0.27}
{"MUTANT": "G27A U43G", "ASSAY_RESULT": 0.05}
{"MUTANT": "C8U G30C", "ASSAY_RESULT": 0.26}
{"MUTANT": "G2C C3A", "ASSAY_RESULT": 0.42}
{"MUTANT": "G22U C45U", "ASSAY_RESULT": 1.25}
{"MUTANT": "A39U C45U", "ASSAY_RESULT": 0.85}
{"MUTANT": "G22U G29A", "ASSAY_RESULT": 1.67}
{"MUTANT": "U32A U34A", "ASSAY_RESULT": 0.05}
{"MUTANT": "G19U A25G", "ASSAY_RESULT": 0.49}
{"MUTANT": "C10U G33A", "ASSAY_RESULT": 0.05}
{"MUTANT": "A26C A39C", "ASSAY_RESULT": 0.09}
{"MUTANT": "G40C C45A", "ASSAY_RESULT": 0.09}
